assay: logP by HPLC on reversed-phase column (EEC Directive 79/831 Annex V.A8); settings: HPLC on reversed-phase column (C 18), 40° C., 0.1% aqueous formic acid and acetonitrile, linear gradient 10% to 90% acetonitrile
Measured Quantity: logP

* Cn1nc(C(F)F)c(C(=O)N(Cc2ccccc2C2CC2C2CC2)C2CC2)c1F (centres unmarked) [Example 155] | 4.25
* Cn1nc(C(F)F)c(C(=S)N(Cc2c(Cl)cccc2C(F)(F)F)C2CC2)c1F [Example 132] | 4.23
* CCC(C)c1ccccc1CN(C(=O)c1c(C(F)F)nn(C)c1F)C1CC1 (centres unmarked) [Example 156] | 4.06
* CC(C)c1ccccc1CN(C(=S)c1c(C(F)F)nn(C)c1F)C1CC1 [Example 131] | 4.36
* CC(c1cccc(I)c1)N(C(=O)c1c(C(F)F)nn(C)c1F)C1CC1 (centres unmarked) [Example 103] | 3.76
* CC(c1cc(Br)cc(Br)c1)N(C(=O)c1c(C(F)F)nn(C)c1F)C1CC1 (racemic) [Example 106] | 4.26
* Cn1nc(C(F)F)c(C(=O)N(Cc2c(Cl)cc(Cl)cc2Cl)C2CC2)c1F [Example 107] | 3.99
* Cn1nc(C(F)F)c(C(=O)N(Cc2ccccc2Oc2ccc(F)cc2)C2CC2)c1F [Example 110] | 3.85
* Cc1cccc2c1CCC2N(C(=O)c1c(C(F)F)nn(C)c1F)C1CC1 (racemic) [Example 102] | 3.55
* CC(c1cc(Cl)ccc1C(F)(F)F)N(C(=O)c1c(C(F)F)nn(C)c1F)C1CC1 (centres unmarked) [Example 101] | 3.92
* Cc1cccc(C)c1CN(C(=O)c1c(C(F)F)nn(C)c1F)C1CC1 [Example 108] | 3.31
* CC(C)CC(C)c1ccccc1CN(C(=O)c1c(C(F)F)nn(C)c1F)C1CC1 (centres unmarked) [Example 154] | 4.82
* Cn1nc(C(F)F)c(C(=O)N(Cc2c(Cl)cccc2[Si](C)(C)C)C2CC2)c1Cl [Example 151] | 4.82
* CC(C)c1ccc(F)cc1CN(C(=O)c1c(C(F)F)nn(C)c1Cl)C1CC1 [Example 146] | 3.92
* Cn1nc(C(F)F)c(C(=O)N(Cc2cc(Cl)ccc2C2CCCC2)C2CC2)c1Cl [Example 152] | 4.92
* CCc1ccccc1CN(C(=S)c1c(C(F)F)nn(C)c1F)C1CC1 [Example 133] | 4.06
* CC(C)Cc1cccc(Cl)c1CN(C(=O)c1c(C(F)F)nn(C)c1Cl)C1CC1 [Example 150] | 4.74

* * *

test: logP by HPLC on reversed-phase column (EEC Directive 79/831 Annex V.A8); settings: HPLC, reversed-phase column (C 18), 40° C., 0.1% aqueous formic acid and acetonitrile, linear gradient 10% to 90% acetonitrile
Please assign Not satisfied whenever logP is at or above 4, and Satisfied whenever it is below.

* CC(c1ccc(Oc2ccccc2)cc1)N(C(=O)c1c(C(F)F)nn(C)c1Cl)C1CC1 (stereo not drawn) [Example 60] | Not satisfied
* Cc1ccc(C(F)(F)F)c(CN(C(=O)c2c(C(F)F)nn(C)c2F)C2CC2)c1 [Example 12] | Satisfied
* Cn1nc(C(F)F)c(C(=O)N(Cc2c(C(F)(F)F)ccc(Cl)c2F)C2CC2)c1F [Example 5] | Satisfied
* Cn1nc(C(F)F)c(C(=O)N(Cc2c(F)cccc2[Si](C)(C)C)C2CC2)c1F [Example 11] | Not satisfied
* CCC(c1cc(Cl)cc(Cl)c1)N(C(=O)c1c(C(F)F)nn(C)c1F)C1CC1 (stereo not drawn) [Example 71] | Not satisfied
* CC(c1ccccc1Br)N(C(=O)c1c(C(F)F)nn(C)c1F)C1CC1 (stereo not drawn) [Example 98] | Satisfied
* Cn1nc(C(F)F)c(C(=O)N(Cc2ccccc2I)C2CC2)c1Cl [Example 35] | Satisfied
* Cn1nc(C(F)F)c(C(=O)N(C2CC2)C2CCC(C)(C)c3ccccc32)c1F (stereo not drawn) [Example 99] | Not satisfied
* CC(c1ccccc1C(F)(F)F)N(C(=O)c1c(C(F)F)nn(C)c1F)C1CC1 (stereo not drawn) [Example 66] | Satisfied
* Cn1nc(C(F)F)c(C(=O)N(Cc2cc(Cl)ccc2I)C2CC2)c1F [Example 23] | Satisfied
* Cn1nc(C(F)F)c(C(=O)N(Cc2c(F)cccc2I)C2CC2)c1F [Example 8] | Satisfied
* CCCCCc1ccccc1C(C)N(C(=O)c1c(C(F)F)nn(C)c1F)C1CC1 (racemic) [Example 26] | Not satisfied
* Cn1nc(C(F)F)c(C(=O)N(Cc2c(C(F)(F)F)ccc(F)c2F)C2CC2)c1F [Example 68] | Satisfied
* CC(c1ccccc1C(F)(F)F)N(C(=O)c1c(C(F)F)nn(C)c1Cl)C1CC1 (stereo not drawn) [Example 55] | Satisfied

* * *

Reported logP values follow for various compounds
assay: logP by HPLC on reversed-phase column (EEC Directive 79/831 Annex V.A8); details: HPLC, reversed-phase column (C 18), 40° C., 0.1% aqueous formic acid and acetonitrile, linear gradient 10% to 90% acetonitrile
Measured Quantity: logP

• Cn1nc(C(F)F)c(C(=O)N(Cc2ccccc2C(F)(F)F)C2CC2)c1Cl [Example 56] = 3.58
• Cn1nc(C(F)F)c(C(=O)N(Cc2ccccc2C(F)(F)F)C2CC2)c1F [Example 61] = 3.39
• Cc1cc(C)cc(C(C)N(C(=O)c2c(C(F)F)nn(C)c2F)C2CC2)c1 (racemic) [Example 46] = 3.8
• Cn1nc(C(F)F)c(C(=O)N(Cc2cc(Cl)ccc2Br)C2CC2)c1F [Example 4] = 3.67
• Cc1cc(C)c2c(c1)C(N(C(=O)c1c(C(F)F)nn(C)c1F)C1CC1)CCC2 (stereo not drawn) [Example 74] = 4.25
• CC[Si](CC)(CC)c1ccccc1CN(C(=O)c1c(C(F)F)nn(C)c1F)C1CC1 [Example 14] = 5.53
• Cn1nc(C(F)F)c(C(=O)N(Cc2ccc(Cl)cc2Cl)C2CC2)c1Cl [Example 59] = 3.89
• Cn1nc(C(F)F)c(C(=O)N(Cc2c(C(F)(F)F)ccc(Cl)c2Cl)C2CC2)c1F [Example 15] = 3.89
• Cn1nc(C(F)F)c(C(=O)N(Cc2ncc(C(F)(F)F)cc2Cl)C2CC2)c1Cl [Example 57] = 3.55
• Cc1cc(Br)c(CN(C(=O)c2c(C(F)F)nn(C)c2F)C2CC2)cc1Br [Example 17] = 4.19
• Cn1nc(C(F)F)c(C(=O)N(Cc2ccccc2[Si](C)(C)C)C2CC2)c1Cl [Example 37] = 4.49
• Cn1nc(C(F)F)c(C(=O)N(C2CC2)C2CCCc3cccc(Br)c32)c1F (stereo not drawn) [Example 97] = 3.78

* * *

assay: logP by HPLC on reversed-phase column (EEC Directive 79/831 Annex V.A8); settings: HPLC, reversed-phase column (C 18), 40° C., 0.1% aqueous formic acid and acetonitrile, linear gradient 10% to 90% acetonitrile
// reported logP for each item listed
Measured Quantity: logP

• CCc1cc(C)c(C)cc1CN(C(=O)c1c(C(F)F)nn(C)c1F)C1CC1 [Example 53] = 4.04
• Cn1nc(C(F)F)c(C(=O)N(Cc2c(Cl)cccc2Br)C2CC2)c1F [Example 83] = 3.42
• CC(c1cccc2c1CCC(C)(C)C2)N(C(=O)c1c(C(F)F)nn(C)c1F)C1CC1 (racemic) [Example 44] = 4.89
• CC(C)Cc1ccccc1CN(C(=O)c1c(C(F)F)nn(C)c1F)C1CC1 [Example 33] = 4.15
• Cn1nc(C(F)F)c(C(=O)N(Cc2cc(Cl)c(Cl)cc2C(F)(F)F)C2CC2)c1F [Example 25] = 4.34
• Cn1nc(C(F)F)c(C(=O)N(Cc2cccc(-c3ccccc3)c2)C2CC2)c1F [Example 64] = 3.78
• Cn1nc(C(F)F)c(C(=O)N(Cc2cc(Cl)ccc2C(F)(F)F)C2CC2)c1Cl [Example 36] = 4.01
• Cn1nc(C(F)F)c(C(=O)N(Cc2cc(Cl)ccc2C(F)(F)F)C2CC2)c1F [Example 1] = 3.8
• CC(c1ccc(C(F)(F)c2ccccc2)cc1)N(C(=O)c1c(C(F)F)nn(C)c1F)C1CC1 (centres unmarked) [Example 77] = 4.23
• CC(c1ccc(Cl)cc1Cl)N(C(=O)c1c(C(F)F)nn(C)c1F)C1CC1 (centres unmarked) [Example 70] = 3.83
• Cn1nc(C(F)F)c(C(=O)N(Cc2c(Br)ccc(F)c2F)C2CC2)c1F [Example 10] = 3.21
• CC(c1cccc2c1CCCC2)N(C(=O)c1c(C(F)F)nn(C)c1F)C1CC1 (racemic) [Example 51] = 4.14
• Cn1nc(C(F)F)c(C(=O)N(Cc2ccccc2SC(F)(F)F)C2CC2)c1F [Example 30] = 3.74
• CCCCC(c1ccc(C(F)(F)F)cc1)N(C(=O)c1c(C(F)F)nn(C)c1F)C1CC1 (centres unmarked) [Example 93] = 4.8
• Cn1nc(C(F)F)c(C(=O)N(Cc2cccc(-c3ccccc3)c2)C2CC2)c1Cl [Example 67] = 3.94
• CC1CCc2cccc(C(C)N(C(=O)c3c(C(F)F)nn(C)c3F)C3CC3)c2C1 (mixture of isomers) [Example 50] = 4.59
• Cn1nc(C(F)F)c(C(=S)N(Cc2ncc(C(F)(F)F)cc2Cl)C2CC2)c1F [Example 7] = 4.11
